Biological target: His-tagged BRD4 BD1 (46-168) (Homo sapiens, UniProt O60885)
Construct: His-tagged BRD4 BD1 (46-168) and biotinylated histone H4K5/8/12/16(Ac) peptide
Assay: AlphaLISA competition assay, BRD4 BD1
Assay type: binding
Conditions: BRD4-BD1, AlphaLISA competition with biotinylated histone H4K5/8/12/16(Ac) peptide, 10 nM
Description: Exemplary compounds were tested for ability to bind to bromodomain-containing protein 4 (BRD4). Compounds were tested using a developed AlphaLISA competition assay. Briefly, His-tagged BRD4 BD1 (46-168) and biotinylated histone H4K5/8/12/16(Ac) peptide (ANASPEC, AS-64989-1) were incubated in 20 mM HEPES pH 7.5, 100 mM NaCl, 0.5 mM TCEP, 0.1% BSA, 0.02% CHAPS at a final concentration of 10 nM. […] The AlphaLISA signals were measured using an EnVision plate reader (PerkinElmer). […]
Measurement name: IC50

# Smiles repr, Value measured
rows = [
    ("CNC(=O)COc1cc2cc(Nc3nc(N4CCCC5(CN(C[C@H]6C[C@@H](Oc7ccc(C(C)(C)O)cc7-c7cn(C)c(=O)c8[nH]ccc78)C6)C5)C4)ncc3Cl)ccc2n(C)c1=O", "< 5 nM"),
]

Below are some compounds; for each one, tell me its IC50.
1. CCS(=O)(=O)Nc1ccc(Oc2cccc(OCCCCN3CCN(CC4CCN(c5ncc(Cl)c(Nc6ccc7c(c6)cc(OCC(=O)NC)c(=O)n7C)n5)CC4)CC3)c2)c(-c2cn(C)c(=O)c3[nH]ccc23)c1
2. CCS(=O)(=O)Nc1ccc(Oc2ccc(OCCN3CCN(CC4CCN(c5ncc(Cl)c(Nc6ccc7c(c6)cc(OCC(=O)NC)c(=O)n7C)n5)CC4)CC3)cc2)c(-c2cn(C)c(=O)c3[nH]ccc23)c1
3. CCS(=O)(=O)Nc1ccc(Oc2ccc(OCCN3CCN(CCCC4CCN(c5ncc(Cl)c(Nc6ccc7c(c6)cc(OCC(=O)NC)c(=O)n7C)n5)CC4)CC3)cc2)c(-c2cn(C)c(=O)c3[nH]ccc23)c1
4. CNC(=O)COc1cc2cc(Nc3nc(N4CCC(CN5CCN(Cc6ccc(Oc7ccc(C(C)(C)O)cc7-c7cn(C)c(=O)c8[nH]ccc78)cc6)CC5)CC4)ncc3Cl)ccc2n(C)c1=O

5 to 50 nM
5 to 50 nM
5 to 50 nM
< 5 nM

###

tested on: T-Rex 293 cell line SC cells having increased expression of BCL6 protein; assay: Cellular growth inhibition assay, T-Rex 293 SC cells with doxycycline (CellTiter-Glo); assay type: cell-based; details: T-Rex 293 SC cells with 10 ng/mL doxycycline (increased BCL6 expression), 72 hours, CellTiter-Glo 2.0
Measurement name: GI50

Here are 5 compounds together with their reported answers.
# Compound, GI50
data = [
    ("CCS(=O)(=O)Nc1ccc(Oc2cccc(OCCN3CCN(CCC4CCN(c5ncc(Cl)c(Nc6ccc7c(c6)cc(OCC(=O)NC)c(=O)n7C)n5)CC4)CC3)c2)c(-c2cn(C)c(=O)c3[nH]ccc23)c1 [Compound I-13]", "< 500 nM"),
    ("CNC(=O)COc1cc2cc(Nc3nc(N4CCC(CN5CCCC6(C5)CN(C[C@H]5C[C@@H](Oc7ccc(C(C)(C)O)cc7-c7cn(C)c(=O)c8[nH]ccc78)C5)C6)CC4)ncc3Cl)ccc2n(C)c1=O [Compound I-44]", "< 500 nM"),
    ("CCS(=O)(=O)Nc1ccc(Oc2ccc(OCCN3CCN(CC4CCN(c5ncc(Cl)c(Nc6ccc7c(c6)cc(OCC(=O)NC)c(=O)n7C)n5)CC4)CC3)cc2)c(-c2cn(C)c(=O)c3[nH]ccc23)c1 [Compound I-7]", "< 500 nM"),
    ("CNC(=O)COc1cc2cc(Nc3nc(N4CCC(CN5CCC6(CC5)CC(CC5CC(Oc7ccc(C(C)(C)O)cc7-c7cn(C)c(=O)c8[nH]ccc78)C5)C6)CC4)ncc3Cl)ccc2n(C)c1=O (stereo not drawn) [Compound I-53]", "< 500 nM"),
    ("CCS(=O)(=O)Nc1ccc(Oc2cccc(OCCN3CCN(CC4CCN(c5ncc(Cl)c(Nc6ccc7c(c6)cc(OCC(=O)NC)c(=O)n7C)n5)CC4)CC3)c2)c(-c2cn(C)c(=O)c3[nH]ccc23)c1 [Compound I-4]", "< 500 nM"),
]

Now for the compound whose GI50 we want.
Looking up CCS(=O)(=O)Nc1ccc(Oc2cccc(OCCN3CCN(CCCC4CCN(c5ncc(Cl)c(Nc6ccc7c(c6)cc(OCC(=O)NC)c(=O)n7C)n5)CC4)CC3)c2)c(-c2cn(C)c(=O)c3[nH]ccc23)c1 [Compound I-11] , I found its GI50 recorded as < 500 nM
